experimentNotes: Cmax in Sprague-Dawley rat at 10 mg/kg, po by LC-MS/MS analysis
Type: ADME, organism-based
Parameters: dose 10 mg/kg, route oral
assayContext: in vivo
Each record here notes measured Cmax.
Enter your answer as a number in ng/mL; do not include the unit.

What value of Cmax has been recorded for this entry: `CC(C)(C(=O)O)c1ccc(CN2CCC(COC(=O)c3c4n(c5ccccc35)CCCO4)CC2)cc1`
130

Reported Cmax, compound `CC(C)(C)c1ccc(CN2CCC(COC(=O)c3c4n(c5ccccc35)CCCO4)CC2)cc1` : ____
33

----------
assayTarget: Voltage-gated inwardly rectifying potassium channel KCNH2 (Homo sapiens)
Sequence (Q12809 whole entry): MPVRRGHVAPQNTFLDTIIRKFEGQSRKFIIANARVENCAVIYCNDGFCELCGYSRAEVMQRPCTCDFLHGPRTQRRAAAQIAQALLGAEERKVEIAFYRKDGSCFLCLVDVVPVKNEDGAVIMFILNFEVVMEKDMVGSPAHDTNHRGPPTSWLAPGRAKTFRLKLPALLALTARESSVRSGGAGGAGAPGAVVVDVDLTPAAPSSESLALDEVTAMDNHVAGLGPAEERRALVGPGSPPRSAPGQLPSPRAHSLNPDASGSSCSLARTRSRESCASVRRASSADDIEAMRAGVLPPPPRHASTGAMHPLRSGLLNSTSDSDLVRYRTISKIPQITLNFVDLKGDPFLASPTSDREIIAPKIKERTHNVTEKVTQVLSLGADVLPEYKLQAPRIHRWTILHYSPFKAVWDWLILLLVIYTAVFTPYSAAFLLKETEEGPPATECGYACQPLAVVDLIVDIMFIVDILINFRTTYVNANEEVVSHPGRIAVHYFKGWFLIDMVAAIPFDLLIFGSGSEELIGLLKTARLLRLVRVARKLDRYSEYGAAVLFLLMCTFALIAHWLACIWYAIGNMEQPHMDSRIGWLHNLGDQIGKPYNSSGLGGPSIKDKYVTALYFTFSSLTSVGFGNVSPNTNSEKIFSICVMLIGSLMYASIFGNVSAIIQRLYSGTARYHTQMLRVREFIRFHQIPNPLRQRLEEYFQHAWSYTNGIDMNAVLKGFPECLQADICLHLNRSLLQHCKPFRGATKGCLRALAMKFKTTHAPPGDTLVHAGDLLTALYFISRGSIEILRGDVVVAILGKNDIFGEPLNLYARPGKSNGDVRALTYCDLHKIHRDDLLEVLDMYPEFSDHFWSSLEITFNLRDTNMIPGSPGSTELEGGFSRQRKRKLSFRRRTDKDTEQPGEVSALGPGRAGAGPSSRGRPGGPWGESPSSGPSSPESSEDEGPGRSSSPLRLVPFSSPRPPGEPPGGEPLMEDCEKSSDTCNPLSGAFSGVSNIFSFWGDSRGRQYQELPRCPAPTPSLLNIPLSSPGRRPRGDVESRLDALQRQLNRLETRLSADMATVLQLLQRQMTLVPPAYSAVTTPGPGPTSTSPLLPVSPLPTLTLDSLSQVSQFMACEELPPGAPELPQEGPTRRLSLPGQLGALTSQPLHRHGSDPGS
experimentNotes: Inhibition of human ERG expressed in HEK293 cells by whole-cell patch-clamp technique
Type: cell-based
observedProperty: pIC50
pIC50 here is simply -log10 of the concentration when that concentration is written in mol/L.

Fill in the blank: the reported pIC50 of `CC(C)(C(=O)O)c1ccc(CN2CCC(COC(=O)c3c4n(c5ccccc35)CCCO4)CC2)cc1` is ____.
4.16

----------
experimentNotes: Oral bioavailability in Sprague-Dawley rat at 10 mg/kg by LC-MS/MS analysis
Type: ADME, organism-based
assayContext: in vivo
observedProperty: bioavailability (%)
Give just the numeric value; % need not be written.

{"recordSmiles": "CC(C)(C)c1ccc(CN2CCC(COC(=O)c3c4n(c5ccccc35)CCCO4)CC2)cc1", "displayUnit": "%", "observedValue": 6}

Kindly review the next compound as well.
Any idea what bioavailability was measured for `CC(C)(C(=O)O)c1ccc(CN2CCC(COC(=O)c3c4n(c5ccccc35)CCCO4)CC2)cc1` ?
3

----------
experimentNotes: 1-octanol-PBS partition coefficient, log D of the compound at pH 7.4 by shake-flask method
Type: physicochemical
observedProperty: logD
// no unit, no text: just the number

These recorded examples may help you get a feel for the data.
{"recordSmiles": "CC(C)(C)c1ccc(CN2CCC(COC(=O)c3c4n(c5ccccc35)CCCO4)CC2)cc1", "logD": 2.4}
{"recordSmiles": "Cc1oc(=O)oc1COC(=O)C(C)(C)c1ccc(CN2CCC(COC(=O)c3c4n(c5ccccc35)CCCO4)CC2)cc1", "logD": 2.2}

Continue with the next molecule.
Which logD reading was recorded for the molecule `CC(C)(C(=O)O)c1ccc(CN2CCC(COC(=O)c3c4n(c5ccccc35)CCCO4)CC2)cc1` ?
-1.2

----------
experimentNotes: Tmax in Sprague-Dawley rat at 10 mg/kg, po by LC-MS/MS analysis
Format: ADME, organism-based
Design: dose 10 mg/kg, route oral
assayContext: in vivo
observedProperty: Tmax
// unit must come after the numeric part

{"recordSmiles": "CC(C)(C(=O)O)c1ccc(CN2CCC(COC(=O)c3c4n(c5ccccc35)CCCO4)CC2)cc1", "Tmax": "0.2 h"}

What value of Tmax has been recorded for this entry: `CC(C)(C)c1ccc(CN2CCC(COC(=O)c3c4n(c5ccccc35)CCCO4)CC2)cc1`
5.67 h

----------
Please consider the recorded pKi for 5-hydroxytryptamine receptor 4 (Homo sapiens, UniProt Q13639) in what follows.
On this scale, pKi is minus log10 of a concentration expressed in M (mol/L).

{"molecule": "CCCCN1CCC(CNC(=O)c2c3n(c4ccccc24)CCCO3)CC1 [PIBOSEROD]", "pKi": 10.00}
{"molecule": "Cn1cc(C(=O)OCC2CCN(CCNS(C)(=O)=O)CC2)c2ccccc21", "pKi": 10.40}

Now for the molecule whose pKi we want.
# pKi lookup, item `CC(C)(C(=O)O)c1ccc(CN2CCC(COC(=O)c3c4n(c5ccccc35)CCCO4)CC2)cc1`
9.90
